Data origin: patent US20260265244A1

I'd be grateful if you could share measured pIC50 for these entries.
Biological target: human STING WT (R232) (Homo sapiens, UniProt Q86WV6, H232R)
Sequence (Q86WV6 138-379 H232R): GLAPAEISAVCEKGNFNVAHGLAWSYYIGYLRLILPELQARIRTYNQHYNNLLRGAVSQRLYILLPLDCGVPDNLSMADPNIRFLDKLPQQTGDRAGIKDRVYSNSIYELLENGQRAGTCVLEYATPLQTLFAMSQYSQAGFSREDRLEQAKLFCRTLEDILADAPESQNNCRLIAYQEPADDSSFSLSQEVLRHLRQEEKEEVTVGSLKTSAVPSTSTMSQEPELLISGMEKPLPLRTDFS
Assay: Human STING HTRF binding assay (competitive, Cisbio 64BDSTGPEG)
Numbers only, as −log10 of the molar value.

                                   compound  readout  recorded_measurement
0  Cc1nc2nn(C)cc2cc1-n1nc(-c2cccc3nn(C[C@H](OCCO)c4ccccc4)cc23)c(C(C)C)c1C [Example 8]    pIC50                  7.84
1  Cc1nc2nn(C)cc2cc1-n1nc(-c2cccc3nn(C[C@H](OCC4CC4)c4ccccc4)cc23)c(C(C)C)c1C [Example 63]    pIC50                  7.40
2  Cc1nc2nn(CC3CC3)cc2cc1-n1nc(-c2cccc3nn(C[C@H](O)c4ccccc4)cc23)c(C(C)C)c1C [Example 56]    pIC50                  7.74
3  Cc1nc2nn(CCCCN3CCN(C)CC3)cc2cc1-n1nc(-c2cccc3nn(C[C@H](O)c4ccccc4)cc23)c(C(C)C)c1C [Example 45]    pIC50                  7.74

Each compound below has a recorded value; state its pIC50.
1. Cc1c(C(C)C)c(-c2cccc3nn(C[C@H](O)c4ccccc4)cc23)nn1-c1cc2cn(C)nc2nc1OC(C)C [Example 23]
2. CNCc1nc2nn(C)cc2cc1-n1nc(-c2cccc3nn(C[C@H](O)c4ccccc4)cc23)c(C(C)C)c1C [Example 42]

7.73
7.78

Param readout= pIC50; system= human STING WT (R232) (Homo sapiens, UniProt Q86WV6, H232R); entry= Cn1cc2cc(-c3nc(-c4cccc5nn(C[C@H](O)c6ccccc6)cc45)c(C4CC4)n3C)c(C3CC3(F)F)nc2n1 (stereo partly shown) [Example 110] ; returns value.
8.08

* * *

Target: human STING WT (R232) (Homo sapiens, UniProt Q86WV6, H232R)
Test: Human STING HTRF binding assay (competitive, Cisbio 64BDSTGPEG)
pIC50: −log10 of the molar value.
Outcome label depends on pIC50 relative to 8: at/above gives Criterion met, below gives Criterion not met.

Some entries whose results are on file:
>>> df
                                        smi     classification
0  Cc1nc2nn(C)cc2cc1-n1nc(-c2cccc3nn(C[C@H](O)c4ccccc4)cc23)c(C(C)C)c1C      Criterion met
1  Cc1c(C2CC2)c(-c2c(F)ccc3nn(C[C@H](O)c4ccccc4)cc23)nn1-c1cc2cn(C)nc2nc1C1CC1  Criterion not met
2  CC(C)c1nc2nn(C)cc2cc1-c1nc(-c2cccc3nn(C[S@@+]([O-])c4ccccc4)cc23)c(C2CC2)n1C  Criterion not met
3  Cc1c(C(C)C)c(-c2cccc3nn(C[C@H](O)c4ccccc4)cc23)nn1-c1cc2cn(C)nc2nc1CC1CC1  Criterion not met
4  Cc1nc2nn(C)cc2cc1-n1nc(-c2cccc3nn(C[C@H](OCC(N)=O)c4ccccc4)cc23)c(C(C)C)c1C      Criterion met
5  Cc1nc2nn(Cc3ncnn3C)cc2cc1-n1nc(-c2cccc3nn(C[C@H](O)c4ccccc4)cc23)c(C(C)C)c1C  Criterion not met
6  [2H][C@](O)(Cn1cc2c(-c3nn(-c4cc5cn(C)nc5nc4C)c(C)c3C(C)C)cccc2n1)c1ccccc1      Criterion met
7  CC(C)c1nc2nn(C)cc2cc1-c1nc(-c2cccc3nn(C[C@H](O)c4ccccc4)cc23)c(C2CC2)n1C      Criterion met
8  Cc1c(C(C)C)c(-c2cccc3nn(C[C@H](O)c4ccccc4)cc23)nn1-c1cc2cn(C)nc2nc1N(C)C  Criterion not met

Could you now consider this next compound?
Is it the case that Cn1cc2cc(-c3nc(-c4cccc5nn(C[C@H](O)c6ccc(O)cc6)cc45)c(C4CC4)n3C)c(C3CC3)nc2n1 has pIC50 reaching or exceeding 8?
Criterion met

* * *

Molecular target: human STING WT (R232) (Homo sapiens, UniProt Q86WV6, H232R)
Construct: purchased Cisbio 64BDSTGPEG
Test: Human STING HTRF binding assay (competitive, Cisbio 64BDSTGPEG)
I'd be grateful if you could share measured IC50 for these entries.
One number for each entry, in nM.

For orientation, consider the following solved cases.
In [3]: df
Out[3]:
                                        smi                           target_of_assay  unit_name  recorded_measurement
0  COc1ccc(Cn2cc3cc(-c4nc(-c5cccc6nn(C[C@H](O)c7ccccc7)cc56)c(C5CC5)n4C)c(C4CC4)nc3n2)cc1  human STING WT (R232) (Homo sapiens, UniProt Q86WV6, H232R)         nM                  14.1
1  Cc1nc2nn(C)cc2cc1-n1nc(-c2cccc3nn(C[C@H](O)c4ccc(F)c(F)c4)cc23)c(C(C)C)c1C  human STING WT (R232) (Homo sapiens, UniProt Q86WV6, H232R)         nM                  16.9
2  Cc1nc2nn(C)cc2cc1-n1nc(-c2cccc3nn(CCc4ccc(OCCN(C)C)cc4)cc23)c(C(C)C)c1C  human STING WT (R232) (Homo sapiens, UniProt Q86WV6, H232R)         nM                  16.9

Please find the next molecule below.
Param readout= IC50; system= human STING WT (R232) (Homo sapiens, UniProt Q86WV6, H232R); entry= Cn1cc([C@@H](O)Cn2cc3c(-c4nc(-c5cc6cn(C)nc6nc5C5CC5)n(C)c4C4CC4)cccc3n2)cn1 ; returns value.
7.6
